Data provenance: the supplement of paper PMC10065799

A collection of sequences and their measured phosphorylation enrichment
- Test system: AncSZ;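 further: 11-residue human phosphosite peptides and single-mutation variants displayed on the E. coli surface, counted by deep sequencing, each peptide's frequency after selection divided by its frequency in the unselected input library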;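 further: frequency after pTyr selection over input frequency; kinase dosed for 20-30% of maximal phosphorylation in three min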
- experiment notes: phosphorylation enrichment, bacterial display (enrichment ratio); higher = better substrate or ligand; peptides without Tyr show the background
experimental readout: phosphorylation enrichment

[[record]]
chain = "PATINYPFEKG [NDUFS8_Y84]"
endpoint_value = 0.88

[[record]]
chain = "FVSIVCNDSGE [TSC2_Y1650_Y1650C]"
endpoint_value = 1.12

[[record]]
chain = "YCVDCYKNFVA [FHL1_Y213]"
endpoint_value = 0.668

[[record]]
chain = "VPFARYLAMNK [HARS1_Y138]"
endpoint_value = 0.432

[[record]]
chain = "CTTIHYSFMCN [TP53_Y234_N235S_YF]"
endpoint_value = 1.08

[[record]]
chain = "FYNSEYGELSE [FLT4_Y1337]"
endpoint_value = 1.47

[[record]]
chain = "NWGSPYKSNGC [ZNF347_Y261]"
endpoint_value = 0.894

[[record]]
chain = "GRTNICKNKKD [SLC26A3_Y520_Y520C]"
endpoint_value = 0.631

[[record]]
chain = "KNRDVSSSDYF [USP24_Y2134_Y2134S]"
endpoint_value = 0.921

[[record]]
chain = "LNPDGYKKAFE [CPXM2_Y427_E428K_YF]"
endpoint_value = 1.02

[[record]]
chain = "FADIAYNYRDG [PAH_Y166_H170D]"
endpoint_value = 0.942

[[record]]
chain = "PPVVNYEEDAR [FER_Y402]"
endpoint_value = 1.26

[[record]]
chain = "KFWREYILSLE [GPC3_Y299_YF]"
endpoint_value = 0.999

[[record]]
chain = "TEGNEYVFRVA"
endpoint_value = 1.08

